Reported 100 nM Ag Bound (RU) values for a set of binders
# target system: T1, recombinant human CD63 extracellular loop 2 expressed with a C-terminal human Fc tag (human)
# T1 construct: also called hCD63 EC loop 2-hFc; human CD63 EC loop 2-Fc
# T1 sequence (chain, as listed by the source limits assumed): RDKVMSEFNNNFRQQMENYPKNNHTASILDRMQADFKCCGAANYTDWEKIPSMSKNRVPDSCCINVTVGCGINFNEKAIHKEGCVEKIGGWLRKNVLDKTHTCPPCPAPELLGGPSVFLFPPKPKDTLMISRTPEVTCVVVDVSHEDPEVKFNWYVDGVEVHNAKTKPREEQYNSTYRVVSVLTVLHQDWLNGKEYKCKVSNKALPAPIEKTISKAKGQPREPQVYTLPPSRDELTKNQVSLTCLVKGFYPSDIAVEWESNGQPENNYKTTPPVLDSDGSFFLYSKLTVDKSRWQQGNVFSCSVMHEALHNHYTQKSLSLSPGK
# experiment summary: SPR Biacore, mAb captured, 25C
The response must be a number in RU with no trailing unit.

Challenge: # query: 100 nM Ag Bound (RU) of entry H2M12395N (antibody, V domains shown, also called H2aM12395N) VH: QVQLQESGPRLVKPSETLSLTCIVSGGSISNFYWNWIRQSPGKGLEWIGYFFYTGTIDYNPSLKSRVTISLDTSKNQFSLNLRLLTAADAAVYYCARMGLGANAFDIWGHGTMVTVSS VL: EIVLTQSPGTLSLSPGERATLSCRASQHVSSNYLAWYQQKPGQAPRLLIYGGSSRATGIPDRFSGSGSGTDFTLTISRLEPADFAVFYCQQYGNSPWTFGQGTKVEMK
Response given: 117

Challenge: Next up: H2M12454N (antibody, V domains shown, also called H2bM12454N) VH: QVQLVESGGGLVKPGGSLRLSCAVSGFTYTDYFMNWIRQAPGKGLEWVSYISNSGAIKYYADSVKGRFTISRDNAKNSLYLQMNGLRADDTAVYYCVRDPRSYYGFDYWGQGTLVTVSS VL: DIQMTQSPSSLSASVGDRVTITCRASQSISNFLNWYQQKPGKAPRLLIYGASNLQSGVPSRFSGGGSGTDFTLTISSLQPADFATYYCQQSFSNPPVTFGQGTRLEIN
Response given: 142

Challenge: // repeat for H1M12362N (antibody, V domains shown) VH: QVQLVESGGGLVKPGGSLRLSCAASGFIFSDYYINWIRQAPGKGLEWVSYTSSSGSTTYYEDSVKGRFTMSRDNARNLVYLQMNSLRAEDTAAYYCVRDLRYNDGLDVWGQGTTVTVSS VL: DILLTQSPSSLSASVGDRVTITCRASQSIRTYLNWYQQKPGRAPKLLVYAASSLQSGVPSRFSGSGSGTDFTLTISSLQPEDFATYFCQQSYDNPPITFGQGTRLAIK and report
Response given: 125
